# System: MS2 coat protein
# test-protocol: apparent Kd, MS2 coat protein; higher = weaker binding; RNA-MaP array
# applied-conditions: ligand present: tryptophan; designed as: ON switch for tryptophan
For each record, write down the corresponding apparent Kd.
Please give a number only; it is taken to be in nM.

For the sequence AGUUACAUGAGGAUCACCCAUGUCCGGUUGCGAGGACCGGUACGGCCGCCACUCGGGUACAUCCCAGAAAAUACUGAAUGCCUGC , what apparent Kd is on record?
51

Look up apparent Kd for this sequence: AAAUACAUGAGGAUCACCCAUGUCAAUAAUCGAGGACCGGUACGGCCGCCACUCGAUCGGCCAAGAAAAUGAAAGAUGAUCUCUA
30.7

Please give the measured apparent Kd for this sequence: AACCACGAGUCGGCCGCCACUUGCAACUAGUUUCAGAAGCAGAAACAUGAGGAUCACCCAUGUCGAAGGACCGGGACUUUACAGG
18.7

Value lookup for apparent Kd; key = CACUACAUGAGGAUCACCCAUGUCUUCCGACGAGGACCGGUACGGCCGCCACUCGAACCUCCAACUAAUACCUCAACCGUCUGAU
54.6

Quick check: apparent Kd of UUGCUCUCUUCGGCCGCCACUACACGCGAGUUGACGACUGGCGGACAUGAGGAUCACCCAUGUCAUAGGACCGGGAAUCACGCUG ?
13.8

Would you kindly share the measured apparent Kd for CCCUCCAGAACGGCCGCCACUAAAGGGUUGUGUGCGACUCCGGAACAUGAGGAUCACCCAUGUCUUAGGACCGGGUUCCCUUCUA ?
56.5

* * *

Provide the recorded apparent Kd for the entries that follow.
# Test system: MS2 coat protein
# test-protocol: apparent Kd, MS2 coat protein; higher = weaker binding; RNA-MaP array; FMN 200 µM where present
# applied-conditions: ligand present: flavin mononucleotide; designed as: ON switch for flavin mononucleotide
Please give the number followed by its unit.

Requested read-out: apparent Kd. Entry: UGCGUACAAGCAGACAUGAGGAUCACCCAUGUAGUCUUAUGCGAGGAUAUCGGGAAGGAGGAUUCCGAGAAGGUGCGGUGAGCC
21.9 nM

Given the entry UCUCGUUUCGCAGGAUAUGCUGGUCGGAAAUAAACCGGCCACAUGAGGAUCACCCAUGUGCCACAGCAGAAGGGUGACACUAGA , report its measured apparent Kd.
53.9 nM

Reported apparent Kd, sequence GCCAUCACAUGAGGAUAUGGCACCGUUUCGGUGCCAGAAGGCAUGUCAUAAGACAUGAGGAUCACCCAUGUAGUUAAGAUGGCA : ____
55.4 nM

Name the reported apparent Kd value associated with the sequence CCGGAAACGGGUAGCUGACAUGAGGAUCACCCAUGUGAAACACAGGAUAUGGAUCCUAAUUGGAUCCAGAAGGGUGUCAGCUAC
37.2 nM

Entry AAGAAACAUGAGGAUCACCCAUGUAAUAAUAUGGGAGGAUAUACAAGGACAAUAGUCAAGGUAGAAGGCCUAAGAA : reported apparent Kd = ?
27.5 nM

Entry AACUAACAUGAGGAUCACCCAUGUUGCAGCGGUUGAGGAUAUGUGGGUGAAAAUAGCAUGGCAGAAGGCGAGUGUA has what apparent Kd?
238 nM

Data request, read-out apparent Kd, for CUUUAAGUCGAGAAGGACAUGAGGAUCACCCAUGUAGGAUAUCGAUUAGCUUGCAUCCCGAGCCGCAUCGGUGUGACUGGUGGG
7.83 nM

* * *

# Tested on: MS2 coat protein
# test-protocol: apparent Kd, MS2 coat protein; higher = weaker binding; RNA-MaP array; FMN 200 µM where present
# applied-conditions: ligand present: flavin mononucleotide; designed as: OFF switch for flavin mononucleotide
measured-property: apparent Kd (nM)
Answer format: numeric, nM implied, no suffix.

Fill in the blank: the reported apparent Kd of GCCUGCUGGCGAGGAUAUUCUGUGCGGUUCCGGCUCGUGUCUGUUACAUGAGGAUCACCCAUGUAGGAGAAGGUGUCUGUGGCC is ____.
5.01

Need apparent Kd of CGCAACAUACAGAAGGAGUUAUUGAGAGGUUUACUAGGAUAUGUUCACAUGAGGAUCACCCAUGUCGUUUGGUUUUUUGUUGCG , thanks.
11.2

Quick check: apparent Kd of UGGAAGAGAAGAGGAUAUCCGUAGAUAACACAUGAGGAUCACCCAUGUAAGAGGGAUAGGUGAUAGGAGAAGGCUUAGAGAGGU ?
14.9

Which apparent Kd value belongs to AGGAGAAAUGUAGGAUAUGGGCAUAUAUAUGGGCAAAGCGCAUAUAUAUGCCCAGAAGGACAUGAGGAUCACCCAUGUUUCCCU ?
13.6

Entry AAAGUUGGUAGGCCCUCGGCACAUGAGGAUCACCCAUGUAAGGAGGAUAUGCCCGGUACCCGCUGGCAGAAGGCCUUAUAAGAA : reported apparent Kd = ?
110

I'd like to know its apparent Kd. The sequence in question is GUAGAGUCAGGAUAUACGAGAUCGAAAGAUCGUCGAUCCUUACAUGAGGAUCACCCAUGUAGAAGGGACUCUAC
238

apparent Kd lookup needed for GGAGCGGAAGGAUAUGCUGCGGGAUUGAAUGGAAAGAAAAUACAUGAGGAUCACCCAUGUAGAAGGUCCGUGAA , thanks.
54.2

* * *

# System: MS2 coat protein
# test-protocol: apparent Kd, MS2 coat protein; higher = weaker binding; RNA-MaP array; FMN 200 µM where present
# applied-conditions: ligand present: flavin mononucleotide; designed as: OFF switch for flavin mononucleotide
# cutoff 0.05 µM applies to apparent Kd; >= gives condition met, < gives condition not met

Does the reported apparent Kd for UUGUUCUGAGGAUAUACAUGAGGAUCACCCAUGUGUUUCUGCUUGGUGUCUUGCGUUUGUAGAAGGCUGUUCUC fall at or above the 0.05 µM mark?
condition not met

Is reported apparent Kd greater than or equal to 0.05 µM here: GACCUGAGUAAUAAUGUAGAAAUACAUGAGGAUCACCCAUGUAAGGAUAUGCAGUGGAAUACACUGCAGAAGGUACAUCUCAGG
condition not met

For this sequence, is measured apparent Kd 0.05 µM or higher? UCCCGGGUGCAGAAGGGAUAGGCCUAUUUUCGUGGUAUCCAAACCUAACAUGAGGAUCACCCAUGUCAGGAUAUGCCCACGGGA
condition not met

Quick check, apparent Kd >= 0.05 µM? UCAUUAUAAAUCCAUCAUAACUACAUGAGGAUCACCCAUGUGCAGGAUAUCGAUAAUUUAACUAACGAGAAGGGCAUUUACAGA
condition met

Determine whether measured apparent Kd meets or exceeds 0.05 µM for UUUUAACAUGAGGAUCACCCAUGUGAGGAUAUCGAAAUUUAUAUUAAUAUUUAUAAAUCGAGAAGGCACAUUUU
condition met

Quick check: does AAUUUCAGAAGAGGAUAUUGACAUGAGGAUCACCCAUGUAUUUGGGAAUGUUUACUGAAUUCUUACAAGAAGGUUUACGAACUU have apparent Kd greater than or equal to 0.05 µM?
condition met

* * *

# Test system: MS2 coat protein
# test-protocol: apparent Kd, MS2 coat protein; higher = weaker binding; RNA-MaP array; FMN 200 µM where present
# applied-conditions: ligand present: flavin mononucleotide; designed as: OFF switch for flavin mononucleotide
Assign satisfied to entries whose apparent Kd meets or exceeds 50 nM; assign not satisfied to the rest.

Hi team, for GGAUGAGAAACUCAUCCAAUUCGAACAUGAGGAUCACCCAUGUAGGAUAUGCUACUCAAAGAGUAGCAGAAGGACAUGUGCCUU , is the recorded apparent Kd at or above 50 nM?
satisfied

Check the entry CUGCCUUAUGUAGGAUAUGCAUAGCGUUGCUAUGCAGAAGGACAUGAGGAUCACCCAUGUAUGUAAUCAAUACAUAUCUGGCAG : does apparent Kd equal or exceed 50 nM?
satisfied

In plain terms: is recorded apparent Kd at least 50 nM for CCGGCUGCUGUGAGGAUAUGCCUGUGGGUGCGUGGGUAGAAGGCACAUGAGGAUCACCCAUGUCCUGCGGGCCC ?
satisfied

Item GGUCCUUCUGUUAGGAUAUGCUUUGGGCUUCCGCAGUAGAAGGAACAUGAGGAUCACCCAUGUCCGAUGCCGUA with apparent Kd of 50 nM or above?
satisfied

Is apparent Kd for CCGAAUAUGCAGGAUAUCUUAUCGGAAACGAUAAGAGAAGGGUAAACAUGAGGAUCACCCAUGUUCCUUAACGG at or above 50 nM?
not satisfied

Hi, just wondering whether GAAUGUAAAGAGAAGGGCUACUGGUUGAAACCUGCGGCCUCUGGAACAUGAGGAUCACCCAUGUAGCAGGAUAUCUUUGCGUCA shows apparent Kd of 50 nM or higher.
not satisfied

Confirm if apparent Kd reported for the sequence GACGGUGAUGUAGGAUAUACGCUGGAAUACAGCGUAGAAGGACAUGAGGAUCACCCAUGUAGAGUGUCUCCAAAUAACACCGUC is 50 nM or above.
satisfied

Determine whether measured apparent Kd meets or exceeds 50 nM for CUUAUGUGAGGAUAUGGUGUUGGUCACAGGAAAAAGAUUCUCCAGAAGGCACAUGAGGAUCACCCAUGUAGUGA
satisfied

Could you verify whether the entry AAGUCGCUAGGAGGAUAUACAUGAUCUCACACAUGUACCGCUCACGCCACAUGAGGAUCACCCAUGUAGAAGGCCUAGAGAGGU shows apparent Kd of no less than 50 nM?
satisfied

Check the entry AAACAUGUCCGAGGAUAUCUGGAAACAUUUUCAAGAGAAGGCGGACAUGAGGAUCACCCAUGUCUCUCCUCAUCCAAUCCAAGU : does apparent Kd equal or exceed 50 nM?
not satisfied

apparent Kd >= 50 nM for GUACUGUAGUGAGGAUAUACGAGUUCGAUAGAACGGCGAUCCAUUUAUACAUGAGGAUCACCCAUGUAGAAGGCACUUCAGUAC ?
satisfied

apparent Kd >= 50 nM for UCCAACAUGAGGAUCACCCAUGUACAGGAUAUUAGAUCAGCUCAGCGCGUCCGUCAAGAUAUUUCUAAGAAGGGUACUGGGUAC ?
not satisfied

Is reported apparent Kd greater than or equal to 50 nM here: AAAGAGCGAGGAUAUGCGUGCCGGUGCGGCCAGCCGAUGUGACAUGAGGAUCACCCAUGUAGAAGGCGCAGAAA
not satisfied

hey, is apparent Kd for this one >= 50 nM? GUCAAAACCAUACUGGUCGACGGUCAGGAUAUACAUGAGGAUCACCCAUGUGCUAUUGAUACUAUGUAGAAGGGACCCACCGCA
not satisfied

Quick check: does UGAGCAUGAGGAUAUACAAGGCGUGCCGUAGCACGAGGUCUACAUGAGGAUCACCCAUGUAGAAGGCAUGUUCU have apparent Kd greater than or equal to 50 nM?
not satisfied

Would you say CGGUCGAUGUAAGGAUAUCGACUGGAUAACAGUCGAGAAGGUACAUGAGGAUCACCCAUGUAAUCCUAAUAAUAAUAACGACCG shows apparent Kd at minimum 50 nM?
not satisfied

Evaluate CGUGACUCAGGAUAUCUAUAGUGUCACAUGAGGAUCACCCAUGUCCAGCGAAAGCUGGAGGGAGAAGGGAGUCACG : apparent Kd at minimum 50 nM?
not satisfied

Item UGUGCGUAUGUGAGGAUAUGCUGGUCCUUGGAUCAGCAGAAGGCACAUGAGGAUCACCCAUGUGGUGUCGUACU with apparent Kd of 50 nM or above?
not satisfied

Tell me whether apparent Kd is at least 50 nM here: UUGUUGUGUGUAGGAUAUGCAUAUUAUUAUUAUGCAGAAGGACAUGAGGAUCACCCAUGUGUAUUAUUAUUAUAUAUUAUAUAU
not satisfied

Test whether the sequence UUUUAACAUGAGGAUCACCCAUGUGAGGAUAUCGAAAUUUAUAUUAAUAUUUAUUUUACGAGAAGGCACAUUUU records apparent Kd of 50 nM or higher.
satisfied

Textbook exercise: given the entry AAAUGCCUGUCGAUGCUCGACAUGAGGAUCACCCAUGUAUAGCAGGAUAUGCAGAACUGACUCGUGCAGAAGGGCUAUACCUAA , state whether its apparent Kd is greater than or equal to 50 nM.
satisfied

Could you please find out whether UUAUGUUUUGUAGGAUAUCAUAAGUUAUGUAUUAUAAUUGAAAUUUUGUUAUGAGAAGGACAUUUACAUGAGGAUCACCCAUGU has apparent Kd that meets 50 nM or exceeds it?
not satisfied

Evaluate AAGAGGUCAGGAUAUACGGAGAGAGGGAGUUGGUGAGGGUAACAUGAGGAUCACCCAUGUAGAAGGGACUAAGA : apparent Kd at minimum 50 nM?
not satisfied

Quick check, apparent Kd >= 50 nM? UCCUUAUCGGUCAGGAUAUACACCCGUUUCUCCUUGUAGAAGGGACAUGAGGAUCACCCAUGUACUGUACAUUU
not satisfied

Form field: apparent Kd at least 50 nM? Entry: UUCGUGCAGCUUUGCUGUACGCGUACAUGAGGAUCACCCAUGUAGGAUAUGGUACGCUUUGCGUGCUAGAAGGAUAUGGAGAGC
not satisfied

Hi, just wondering whether UCCGCUCGAGGAUAUACAUGAGGAUCACCCAUGUUUCCCUGUUGUUUGGCCUCAGGAUGUAGAAGGCGACGCUA shows apparent Kd of 50 nM or higher.
not satisfied

Kindly determine if apparent Kd recorded for GGUGCGUUUGUGAGGAUAUGCUGGUCCUUGGAUCAGCAGAAGGCACAUGAGGAUCACCCAUGUGGUGUCGUACC is above or exactly 50 nM.
not satisfied

Does AACUCGUCAGGAUAUGCAUGCAGUUGCUGCAUUUCGCCGUUGCAGAAGGGACAUGAGGAUCACCCAUGUAGGUC have a reported apparent Kd of at least 50 nM?
not satisfied

# bool: apparent Kd of UCAUACAUGACAUGACAUGACAUGAGGAUCACCCAUGUUUACAAGGAUAUGUUGAUGAAACAUCAACAGAAGGUGUAUUGGACU >= 50 nM
satisfied
